- System: PC-14
- experiment summary: relative viability (nuclei count vs DMSO), 5 days (fraction); higher = more cells survive
- test settings: first compound 0.253 µM
measured parameter: relative viability
No unit in the answer, only the number.

The compound listed as Nc1cccc2c1CN(C1CCC(=O)NC1=O)C2=O (configuration not stated) [Lenalidomide] + CS(=O)(=O)N1CCN(Cc2cc3nc(-c4cccc5[nH]ncc45)nc(N4CCOCC4)c3s2)CC1 [Pictilisib] (partner 1 µM) has a reported relative viability of 0.691

Data point: Nc1cccc2c1CN(C1CCC(=O)NC1=O)C2=O (configuration not stated) [Lenalidomide] + CC1(C)CCC(c2ccc(Cl)cc2)=C(CN2CCN(c3ccc(C(=O)NS(=O)(=O)c4ccc(N[C@H](CCN5CCOCC5)CSc5ccccc5)c(S(=O)(=O)C(F)(F)F)c4)cc3)CC2)C1 [Navitoclax] (partner 0.5 µM) ; relative viability = 0.907
